# test_target: T1, Human CD3eg linker (human)
# T1 construct: Single chain: epsilon and gamma subunits of human CD3 joined by a 29-mer linker, Flag-tag at the C-terminus; also called recombinant human CD3
# T1 chain: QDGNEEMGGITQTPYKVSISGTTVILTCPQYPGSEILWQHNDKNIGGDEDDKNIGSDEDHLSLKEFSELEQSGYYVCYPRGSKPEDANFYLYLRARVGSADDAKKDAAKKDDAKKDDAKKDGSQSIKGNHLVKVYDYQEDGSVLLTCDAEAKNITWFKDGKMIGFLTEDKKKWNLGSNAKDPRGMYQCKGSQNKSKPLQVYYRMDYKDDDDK
# assay_text: Biacore SPR, vs template H183/L072
result_type: fold change of affinity (fold)
// units = fold; emit number, no label

Consider the binder H183/L072 VH A56E (antibody, name in Kabat numbering, V domains shown) VH: QVQLVESGGGLVQPGRSLRLSCAASGFTFSNAWMHWVRQAPGKGLEWVAQIKDKGNAYEAYYAPSVKGRFTISRDDSKNSIYLQMNSLKTEDTAVYYCHYVHYASASTVLPAFGVDAWGQGTTVTVSS VL: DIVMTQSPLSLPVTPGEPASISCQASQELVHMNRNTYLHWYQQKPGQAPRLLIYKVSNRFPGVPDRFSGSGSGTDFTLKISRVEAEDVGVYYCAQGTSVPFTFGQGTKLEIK and give its measured fold change of affinity.
0.6

# repeat for H183/L072 VH T28K (antibody, name in Kabat numbering, V domains shown) VH: QVQLVESGGGLVQPGRSLRLSCAASGFKFSNAWMHWVRQAPGKGLEWVAQIKDKGNAYAAYYAPSVKGRFTISRDDSKNSIYLQMNSLKTEDTAVYYCHYVHYASASTVLPAFGVDAWGQGTTVTVSS VL: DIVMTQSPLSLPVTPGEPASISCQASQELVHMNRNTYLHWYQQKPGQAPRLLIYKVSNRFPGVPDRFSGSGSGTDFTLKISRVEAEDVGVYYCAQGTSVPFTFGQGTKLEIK
2.7

Value source: patent US20210388087A1
